Just for reference, patent US20250383350 is where these values come from.

Biological target: IL-8 (CXCL8), C-terminally biotinylated, directly surface-captured (Homo sapiens, UniProt P10145 P10145:28-99)
Sequence (P10145 28-99, one chain of several): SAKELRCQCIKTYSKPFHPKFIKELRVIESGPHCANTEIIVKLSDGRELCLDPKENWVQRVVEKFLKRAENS
Test: single-molecule TIRF; direct IL-8 capture; 25% horse serum, 21 C; kon 2.08e6, koff 0.55
Conditions: tags: C-terminal biotin; Chemotactics B-CXCL8-2 ug; immobilized on streptavidin; label: 3'-Cy5
Metric name: pKd
The quantity pKd is defined as the negative base-10 logarithm of the molar concentration.

Input line: Query (binder): GGGGGCUUAUCAUUCCAUUUAGUGUUAUGAUAACCUCUCCCAUA (ssRNA, 2'-F at C and U (printed i2FC/i2FU up to position 36; text states all pyrimidines)) [8A-44 (SEQ ID NO 1)] ; field requested: pKd
Output line: 6.58
